Source: BindingDB's records for doi:10.1021/cb600303y

Below: a set of entries, each annotated with reported pIC50.
Measurement Target: Gag-Pol polyprotein [600-1028,C879S]/[600-1151,C879S] (Human immunodeficiency virus 1, UniProt P03366, C879S)
Construct: 600-1028; 600-1151
Assay Protocol: Assay of RT RNH Activity
Run Parameters: pH 8; 37 °C
pIC50: −log10 of the molar value.

Molecule: COc1ccc2ccccc2c1/C=N/NC(=O)c1ccc(Oc2ccccc2)cc1
pIC50: 5.15

Molecule: COc1ccc(C(=O)N/N=C/c2c(OC)ccc3ccccc23)cc1
pIC50: 4.92

Molecule: COc1ccc2ccccc2c1/C=N/NC(=O)c1ccc(-c2ccccc2)cc1
pIC50: 5.30

Molecule: COc1ccc2ccccc2c1/C=N/NC(=O)c1ccc(C)cc1
pIC50: 4.82

Molecule: COc1ccc2ccccc2c1/C=N/NC(=O)c1ccccc1
pIC50: 4.82

Molecule: COc1ccc2ccccc2c1/C=N/NC(=O)c1ccc(O)c(O)c1
pIC50: 6.30

Molecule: COc1ccc2ccccc2c1/C=N/NC(=O)C1CCC(c2ccc(Cl)cc2)CC1 (centres undefined)
pIC50: 5.12

Molecule: COc1ccc2ccccc2c1/C=N/NC(=O)c1ccc(C(C)(C)C)cc1
pIC50: 5.52

Molecule: COc1ccc2ccccc2c1/C=N/NC(=O)c1ccc(N(C)C)cc1
pIC50: 5.70

---

Measurement Target: Gag-Pol polyprotein [600-1028,Y787L]/[600-1151,Y787L] (Human immunodeficiency virus 1, UniProt P03366, Y787L)
Construct: 600-1028; 600-1151
Assay Protocol: Assay of RT RNH Activity
pIC50: −log10 of the molar value.

Compound Structure String: COc1ccc2ccccc2c1/C=N/NC(=O)c1ccc(O)c(O)c1
pIC50: 5.92

---

Measurement Target: Gag-Pol polyprotein [600-1028,Y780C]/[600-1151,Y780C] (Human immunodeficiency virus 1, UniProt P03366, Y780C)
Construct: 600-1028; 600-1151
Assay Protocol: Assay of RT RNH Activity

Compound Structure String: COc1ccc2ccccc2c1/C=N/NC(=O)c1ccc(O)c(O)c1
IC50 (nM): 650

---

Measurement Target: Gag-Pol polyprotein [600-1028,C879S]/[600-1151,C879S] (Human immunodeficiency virus 1, UniProt P03366, C879S)
Construct: 600-1028; 600-1151
Assay Protocol: Assay of RT RNA-Dependent DNA Polymerase (RDDP) Activity
Run Parameters: pH 7.8; 37 °C
Below: a set of entries, each annotated with reported IC50.

Compound: COc1ccc2ccccc2c1/C=N/NC(=O)c1ccc(N(C)C)cc1
Qualifier: >
IC50 (µM): 50
//
Compound: COc1ccc2ccccc2c1/C=N/NC(=O)c1ccc(Oc2ccccc2)cc1
Qualifier: =
IC50 (µM): 0.4
//
Compound: COc1ccc2ccccc2c1/C=N/NC(=O)c1ccc(O)c(O)c1
Qualifier: >
IC50 (µM): 25
//
Compound: COc1ccc2ccccc2c1/C=N/NC(=O)c1ccc(-c2ccccc2)cc1
Qualifier: =
IC50 (µM): 0.5
//
Compound: COc1ccc(C(=O)N/N=C/c2c(OC)ccc3ccccc23)cc1
Qualifier: >
IC50 (µM): 50
//
Compound: COc1ccc2ccccc2c1/C=N/NC(=O)c1ccc(C)cc1
Qualifier: >
IC50 (µM): 50
//
Compound: COc1ccc2ccccc2c1/C=N/NC(=O)c1ccccc1
Qualifier: >
IC50 (µM): 50
//
Compound: COc1ccc2ccccc2c1/C=N/NC(=O)c1ccc(C(C)(C)C)cc1
Qualifier: =
IC50 (µM): 2
//
Compound: COc1ccc2ccccc2c1/C=N/NC(=O)C1CCC(c2ccc(Cl)cc2)CC1 (centres undefined)
Qualifier: =
IC50 (µM): 1

---

Measurement Target: Gag-Pol polyprotein [600-1028,L699I,K702N,C879S]/[600-1151,L699I,K702N,C879S] (Human immunodeficiency virus 1, UniProt P03366, C879S/K702N/L699I)
Construct: 600-1028; 600-1151
Assay Protocol: Assay of RT RNH Activity
Metric Name: IC50

Compound Structure String: COc1ccc2ccccc2c1/C=N/NC(=O)c1ccc(O)c(O)c1
Obs Value: 700 nM
